Consider the following sequences and their measured PBM binding z-score readings.
- Test system: PPARg:RXRa DBDmut IVT, anti-RXR (DBD mutation: RXRa K156A/R161A, NR concentration 270 nM, RXRa partner concentration 90 nM)
- protocolNotes: PBM binding z-score (relative to random genomic background probes); higher = stronger binding; sequences stand for … in GC…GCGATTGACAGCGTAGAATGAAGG
Would you mind answering with just the numeric figure?

Field: example entries. Status: answers known.
sequenceEntry: AGAACGAGGGCAATGAGTAGATAGCACGGGTGGC
PBM binding z-score: 2.9
--
sequenceEntry: TCTTGTAGATCAATAGTGGTTAAGAAAGTGCGCT
PBM binding z-score: 1.98
--
sequenceEntry: TCTCGGAGGACACCAAGGTCAGAGCTTTCCAGAG
PBM binding z-score: 1.32
--
sequenceEntry: ATGTCTAGGTAAAGATAGTTCAGTGAATGCAAAT
PBM binding z-score: 1.16

Inquiry: Look up and report measured PBM binding z-score for this entry: `GCGACTGGGGCATCAGCAGGTTACCATTACTTAA`
Reply text: 3.98

Inquiry: Look up and report measured PBM binding z-score for this entry: `CGAACTCGGTCAAGGACAGTGAATCTCCGCACGC`
Reply text: 3.2

Inquiry: Look up and report measured PBM binding z-score for this entry: `ATCGACAGGTCGAGGTGAGTATAGAGAAAGGGAA`
Reply text: -0.576

Inquiry: Look up and report measured PBM binding z-score for this entry: `CCTGCTAGGTCCTGGTCAGCTAATCTACAGTATG`
Reply text: 0.239

Inquiry: Look up and report measured PBM binding z-score for this entry: `CCTACTGGGCCAAAAAGGTCATTGAGGCCGATAA`
Reply text: 3.53

Inquiry: Look up and report measured PBM binding z-score for this entry: `CCGACTTGGGCAGAAAGGTTACCATACCATCCGG`
Reply text: -0.147

Inquiry: Look up and report measured PBM binding z-score for this entry: `TAGCCTAGGTCATGTGCCAGTATACCACGCGAAC`
Reply text: 1.78

Inquiry: Look up and report measured PBM binding z-score for this entry: `TTACCAAGATGAGCTGAGGTCGTTGATCCAACTC`
Reply text: 0.238

* * *

Consider the following sequences and their measured PBM binding z-score readings.
- System: RXRa DBDmut IVT, anti-RXR (DBD mutation: RXRa K156A/R161A, NR concentration 90 nM)
- protocolNotes: PBM binding z-score (relative to random genomic background probes); higher = stronger binding; sequences stand for … in GC…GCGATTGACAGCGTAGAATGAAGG
Would you mind answering with just the numeric figure?

sequenceEntry: ATGTCTAGGTAAAGTTCAGTGAAAGATCGATAGA
systemTested: RXRa DBDmut IVT, anti-RXR (DBD mutation: RXRa K156A/R161A, NR concentration 90 nM)
PBM binding z-score: 1.25

# next sequence below
Inquiry: Look up and report measured PBM binding z-score for this entry: `CCCATTAGTTGACCATAAGGGCAACCGAAGCTCG`
Reply text: 0.208

* * *

- System: RXRa DBDmut IVT, anti-RXR (DBD mutation: RXRa K156A/R161A, NR concentration 90 nM)
- protocolNotes: PBM binding z-score (relative to random genomic background probes); higher = stronger binding; sequences stand for … in GC…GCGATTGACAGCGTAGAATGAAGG
Rule: satisfied for PBM binding z-score not less than 0.1, not satisfied for anything less.

sequenceEntry: TCTTGTAGATCAATAGAGGTTGAGAAAGTGCGCT
categoryLabel: satisfied
//
sequenceEntry: AGTAAAAGTTCAGGACGAGGTAACGTAAAGCACG
categoryLabel: satisfied
//
sequenceEntry: CCTAGTAGGCCAGGGTCACTCAAGCATTTCGCTT
categoryLabel: satisfied
//
sequenceEntry: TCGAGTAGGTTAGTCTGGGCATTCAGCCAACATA
categoryLabel: not satisfied
//
sequenceEntry: ATCTCTAGGTCAAGATAGTTCAGTGAATGCAAAT
categoryLabel: satisfied
//
sequenceEntry: TCTTGTAGATCAACAGGAGGTAAAGAAAGATCGA
categoryLabel: satisfied

Inquiry: Check this sequence for PBM binding z-score at or above 0.1: `GCGACTGGGGCAAAGCAGGTTATCATAAGGTTGG`
Reply text: not satisfied

Inquiry: Check this sequence for PBM binding z-score at or above 0.1: `TCTTGGAGATCAAGCAGGTTAAGAAAGCCTGAGT`
Reply text: satisfied

Inquiry: Check this sequence for PBM binding z-score at or above 0.1: `TTACCAAGGTGAAAGGACGTTGATGCACGCCTTG`
Reply text: not satisfied

Inquiry: Check this sequence for PBM binding z-score at or above 0.1: `TGTTGTAGATCAAGCAGGTTAAGAAAGCCTGAGT`
Reply text: not satisfied

Inquiry: Check this sequence for PBM binding z-score at or above 0.1: `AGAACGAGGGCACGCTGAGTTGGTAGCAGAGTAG`
Reply text: satisfied

Inquiry: Check this sequence for PBM binding z-score at or above 0.1: `ATCGCAAGGTCGTGAGGTGAGTATACAGAAAGGC`
Reply text: satisfied
